Target: 5HT2C receptor (Rattus norvegicus, UniProt P08909)
Sequence (P08909 33-460): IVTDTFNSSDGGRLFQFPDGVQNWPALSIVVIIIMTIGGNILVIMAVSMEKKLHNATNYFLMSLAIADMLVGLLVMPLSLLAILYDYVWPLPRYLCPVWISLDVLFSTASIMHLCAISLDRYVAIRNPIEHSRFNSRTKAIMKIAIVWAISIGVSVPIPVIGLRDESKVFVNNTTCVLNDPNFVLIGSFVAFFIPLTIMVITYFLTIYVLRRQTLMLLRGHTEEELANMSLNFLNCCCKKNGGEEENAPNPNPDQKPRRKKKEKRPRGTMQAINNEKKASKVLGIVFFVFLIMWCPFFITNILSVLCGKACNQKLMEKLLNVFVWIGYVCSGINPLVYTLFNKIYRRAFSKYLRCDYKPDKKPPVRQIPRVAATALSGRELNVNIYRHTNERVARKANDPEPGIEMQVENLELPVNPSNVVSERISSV
Assay: [3H]-5-HT binding assay (Method II b)
Set-up: expressed in transfected cells; host or cells: clonal 5-HT1C cell line
Conditions: 5HT2C, [3H]-5-HT, Method II; read-out: pki, test method b (converted)
Examples of molecules with documented Ki follow.
Numeric answer only, unit nM assumed.

Sample records with Ki:
[[record]]
molecule = "COc1cc2c(cc1Cl)C(C)(C)c1ccn(C[C@H](C)N)c1-2"
measured_result = 26.3

[[record]]
molecule = "CCc1ccc2c(c1)-c1c(ccn1C[C@H](C)N)C2(C)C"
measured_result = 2.34


Ask: Endpoint output: Ki of CC(N)Cn1ccc2c1-c1cccc(Cl)c1C2 (racemic) . Value?
Reply: 35.5

Ask: Next molecule: `C[C@H](N)Cn1ccc2c1-c1cc(F)c(F)cc1C2`
Reply: 41.7

Ask: Proceed to `CCC1(CC)c2ccc(OC)cc2-c2c1ccn2C[C@H](C)N`
Reply: 10
